- Assay Name: parental HEK293 membrane potential modulation, confirmation, counter-screen for TRPC6 modulator project, cell-based (AID 488924)
- Run Parameters: parental HEK293, membrane potential dye fluorescence; at 10 µM
The other results are listed elsewhere or left out. Calls of active or inactive are those of the source.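 How the source made its calls: active means membrane potential signal moves up or down beyond 5 SD from buffer-only wells, on both duplicate plates; inactive means the rest.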
Answer with one of the outcomes given here: active, inactive

# count of solved cases: 5
**Q:** Each molecule tested received a call. Report the one for O=C(C[n+]1ccc2c(c1)nnn2-c1ccccc1)c1ccc(Cl)cc1 .
**A:** active

**Q:** Each molecule tested received a call. Report the one for CCOc1ccc(/C(O)=C2/C(=O)C(=O)N(Cc3cccnc3)C2c2ccc(N(C)C)cc2)c(C)c1 (stereo not given) .
**A:** inactive

**Q:** Each molecule tested received a call. Report the one for COc1ccc(-c2nnc(NC(=O)CS(=O)(=O)c3ccc(Cl)cc3)o2)c(OC)c1 .
**A:** active

**Q:** Each molecule tested received a call. Report the one for CN1CCN(/N=C/c2ccc(-c3ccc([N+](=O)[O-])cc3)o2)CC1 .
**A:** active

**Q:** Each molecule tested received a call. Report the one for Nc1ccc(C(=O)N2CCN(S(=O)(=O)c3ccc(Cl)cc3)CC2)cc1[N+](=O)[O-] .
**A:** inactive

Attention now shifts to the item below.
**Q:** Each molecule tested received a call. Report the one for OCCC1CN(Cc2ccc3nsnc3c2)CCN1C1CCCCC1 (stereo not given) .
**A:** active

----------
- Assay Name: thallium flux activation in parental CHO cells, counter-screen for KCNQ1 potentiator project (AID 493006);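 on activation: fluorescence ratio of max minus min over baseline after K+ and Tl+ depolarization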
- Run Parameters: parental CHO-K1 cells, FluxOR thallium flux, at 10 µM; stronger effect = higher value
Activity calls are given as the source filed them.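 How the source made its calls: active means duplicate-averaged activation above buffer control mean plus 5 SD of those controls; inactive means the rest.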
Reported Metric: activation

// worked examples, activation included
In plain terms, CN(C)S(=O)(=O)c1ccc(Cl)c(NC(=O)CN2CCCCCC2)c1 has a documented activation of inactive

In plain terms, COc1ccc(-n2cc(-c3ccccc3)c3c(=S)nc[nH]c32)cc1 has a documented activation of 137% (active)

In plain terms, Cc1cc(C)c2c(n1)nn1c(NCCCN(C)C)cc(C)nc21 has a documented activation of inactive

In plain terms, Cc1ccc(C(=O)NC(=S)N(C)C2CCCCC2)cc1Br has a documented activation of inactive

In plain terms, CCC(O)C1CCN(Cc2cn(Cc3ccccc3)nc2-c2cc3ccccc3o2)CC1 (configuration not stated) has a documented activation of 170% (active)

Others:
In plain terms, S=c1[nH]nc(-c2ccc(Cl)cc2)n1/N=C/C=C/c1ccco1 has a documented activation of 159% (active)

In plain terms, Cc1ccc(/C=C/C(=O)c2ccccc(=O)c2O)c(C)c1 has a documented activation of 244% (active)

In plain terms, COc1ccc(NC(=O)C(=O)NNC(=O)c2cccs2)c(OC)c1 has a documented activation of 246% (active)

----------
- Assay Name: thallium flux activation in parental CHO cells, counter-screen for KCNQ1 potentiator project (AID 493006);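 on activation: fluorescence ratio of max minus min over baseline after K+ and Tl+ depolarization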
- Run Parameters: parental CHO-K1 cells, FluxOR thallium flux, at 10 µM
The source made the active and inactive calls.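 Rule for the calls: active = duplicate-averaged activation above buffer control mean plus 5 SD of those controls; inactive = the rest.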
Answer with one of the outcomes given here: active, inactive

# count of solved cases: 5
**Q:** Each molecule tested received a call. Report the one for Cc1ccc(-c2csc3nc[nH]c(=S)c23)cc1 .
**A:** active

**Q:** Each molecule tested received a call. Report the one for C=CCn1c(O)c(N=NC(=S)Nc2ccccc2C)c2cc(S(=O)(=O)N3CCOCC3)ccc21 .
**A:** active

**Q:** Each molecule tested received a call. Report the one for Cn1ncc2c(O/N=C(\N)c3ccc(C(C)(C)C)cc3)ncnc21 .
**A:** inactive

**Q:** Each molecule tested received a call. Report the one for O=C(N/N=C/c1ccc2cccc(OCc3ccccc3)c2n1)c1ccc(Br)cc1 .
**A:** inactive

**Q:** Each molecule tested received a call. Report the one for CCc1ccc(-c2c(C)sc(NC(C)=O)c2C(N)=O)cc1 .
**A:** inactive

Others:
**Q:** Each molecule tested received a call. Report the one for O=[N+]([O-])c1ccc(C(O)C(CO)NC(=S)Nc2ccccc2)cc1 (centres undefined) .
**A:** inactive

**Q:** Each molecule tested received a call. Report the one for CC1CN(c2nc3ccccc3nc2C(C#N)C(=O)NCc2ccc3c(c2)OCO3)CC(C)O1 (centres undefined) .
**A:** inactive

**Q:** Each molecule tested received a call. Report the one for COc1cccc(C=NCC(C)N=Cc2cccc(OC)c2O)c1O (centres undefined) .
**A:** inactive

**Q:** Each molecule tested received a call. Report the one for CCS(=O)(=O)Nc1ccc(C(=O)CC2(O)C(=O)Nc3ccccc32)cc1 (centres undefined) .
**A:** inactive

**Q:** Each molecule tested received a call. Report the one for Cc1cccc(NC(=S)N/N=C(\c2ccccc2)C(C)C)c1 .
**A:** inactive

**Q:** Each molecule tested received a call. Report the one for CCOc1cc(CN2CCOCC2)cc(C(C)=O)c1 .
**A:** inactive

**Q:** Each molecule tested received a call. Report the one for O=c1c2cccnc2n(-c2ccccc2)n1Cc1ccc(Cl)cc1 .
**A:** inactive

**Q:** Each molecule tested received a call. Report the one for CCCCC/C=N\NC(=O)Cc1ccc([N+](=O)[O-])cc1 .
**A:** inactive

**Q:** Each molecule tested received a call. Report the one for CCOC(=O)c1sc2nc(C)[nH]c(=S)c2c1C .
**A:** active

**Q:** Each molecule tested received a call. Report the one for CC(=O)Nc1c2c(nn1-c1ccc(C)cc1)CS(=O)(=O)C2 .
**A:** inactive

**Q:** Each molecule tested received a call. Report the one for C=CCn1c(O)c(N=NC(=S)Nc2cccc(OC)c2)c2ccccc21 .
**A:** active

**Q:** Each molecule tested received a call. Report the one for O=C(NCc1ccccc1)C(=O)Nc1nc(C23CC4CC(CC(C4)C2)C3)cs1 .
**A:** inactive

**Q:** Each molecule tested received a call. Report the one for Nc1ccc(C2(c3ccc(N)cc3)OC(=O)c3ccccc32)cc1 .
**A:** inactive

**Q:** Each molecule tested received a call. Report the one for Cc1ccc(C)c(N/C(N)=N/c2nc(C)cc(C)n2)c1 .
**A:** inactive
